target: murine FcRn (murine); assay: BIAcore SPR, equilibrium/Scatchard, soluble FcRn over immobilized IgG1, pH 6.0, 25 C
Sequence (chain, as listed by the source limits assumed, chain 1 of 2): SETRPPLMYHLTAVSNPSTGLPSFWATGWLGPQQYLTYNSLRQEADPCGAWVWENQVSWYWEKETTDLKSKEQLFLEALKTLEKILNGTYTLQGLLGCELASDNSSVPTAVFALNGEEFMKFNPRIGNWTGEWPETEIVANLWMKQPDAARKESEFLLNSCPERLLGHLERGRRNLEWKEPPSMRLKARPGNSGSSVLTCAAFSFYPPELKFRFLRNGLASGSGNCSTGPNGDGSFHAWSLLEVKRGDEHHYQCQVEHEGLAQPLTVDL
Sequence (P01887 21-119 limits assumed, chain 2 of 2): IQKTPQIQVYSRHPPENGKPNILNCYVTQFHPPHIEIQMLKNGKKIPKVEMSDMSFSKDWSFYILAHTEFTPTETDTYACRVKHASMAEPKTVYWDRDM
quantityMeasured: Kd (nM)

> print(dat)
                                  substance            measuredon  quantitymeasured  testresult
1  wild type human IgG1 MEDI-493 (SYNAGIS) (antibody)  murine FcRn (murine)                Kd         269

* * *

molecular target: human FcRn (human); experiment: BIAcore SPR, equilibrium/Scatchard, soluble FcRn over immobilized IgG1, pH 6.0, 25 C
Sequence (chain, as listed by the source limits assumed, chain 1 of 2): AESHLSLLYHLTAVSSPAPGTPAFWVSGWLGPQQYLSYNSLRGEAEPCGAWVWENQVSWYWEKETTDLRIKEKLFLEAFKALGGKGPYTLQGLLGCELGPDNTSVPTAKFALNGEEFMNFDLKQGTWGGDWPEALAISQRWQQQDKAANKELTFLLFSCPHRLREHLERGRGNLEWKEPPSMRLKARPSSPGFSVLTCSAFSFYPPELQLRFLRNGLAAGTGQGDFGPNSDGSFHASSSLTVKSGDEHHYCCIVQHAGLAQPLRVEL
Sequence (P61769 21-119 limits assumed, chain 2 of 2): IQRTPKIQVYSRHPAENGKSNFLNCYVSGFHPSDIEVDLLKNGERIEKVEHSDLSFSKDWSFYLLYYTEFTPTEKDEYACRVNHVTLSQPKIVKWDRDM
quantityMeasured: Kd (nM)

> print(dat)
                                  substance  testresult
1  wild type human IgG1 MEDI-493 (SYNAGIS) (antibody)        2530
